Target: human LPAR1 (Homo sapiens)
Construct: host or cells: CHO-K1
Sequence (Q92633 whole entry): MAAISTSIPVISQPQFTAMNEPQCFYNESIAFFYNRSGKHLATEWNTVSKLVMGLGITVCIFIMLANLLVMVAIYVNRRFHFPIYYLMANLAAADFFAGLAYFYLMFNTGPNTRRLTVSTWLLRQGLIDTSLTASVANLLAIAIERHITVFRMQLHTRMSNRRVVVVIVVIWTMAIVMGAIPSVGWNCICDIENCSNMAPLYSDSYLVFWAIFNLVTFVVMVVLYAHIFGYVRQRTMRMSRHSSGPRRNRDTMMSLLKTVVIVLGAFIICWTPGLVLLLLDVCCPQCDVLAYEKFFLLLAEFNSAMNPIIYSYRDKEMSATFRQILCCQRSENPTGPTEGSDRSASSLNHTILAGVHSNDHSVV
Test: LPAR1 intracellular calcium mobilization assay (antagonist mode)
Assay type: cell-based
Settings: CHO-K1 EDG2 cells expressing human LPAR1; 60 min pre-incubation with compound (0.5 nM to 10 μM), then LPA 18:2 challenge; FLIPR Tetra calcium signal
ENDPOINT_NAME: EC50 (nM)

Q: Suppose we examine the compound C[C@@H](OC(=O)Nc1c(-c2ncc(NC(=O)c3cnc(C(F)F)nc3)cn2)cnn1C)c1cc(F)cnc1F [Compound 24] ; what EC50 value has been reported?
A: 26.8

Q: Likewise for C[C@@H](OC(=O)Nc1c(-c2ncc(OS(C)(=O)=O)cn2)cnn1C)c1cccnc1Cl [Compound 9] ?
A: 42.9

Q: Further, for C[C@@H](OC(=O)Nc1c(-c2ccc(C(=O)NC34CC(F)(C3)C4)cn2)cnn1C)c1cccnc1Cl [Compound 50] ?
A: 869

Q: And for COC1(C#N)CC(C(=O)Nc2cnc(-c3cnn(C)c3NC(=O)O[C@H](C)c3cc(F)cnc3F)nc2)C1 (some centres unmarked) [Compound 43] ?
A: 22.6

Q: Also need C[C@@H](OC(=O)Nc1c(-c2ncc(O)cc2F)cnn1C)c1cccnc1Cl [Compound 10] , thanks.
A: 56.8

(1) C[C@@H](OC(=O)Nc1c(-c2ncc(C(F)F)cn2)cnn1C)c1cc(F)cnc1F [Compound 54]
(2) C[C@@H](OC(=O)Nc1c(-c2ncc(OS(C)(=O)=O)cn2)cnn1C)c1cccnc1F [Compound 8]
(3) C[C@@H](OC(=O)Nc1c(-c2ncc(NC(=O)[C@@H]3C[C@H]3C#N)cn2)cnn1C)c1cc(F)cnc1F [Compound 39]
(4) Cc1nc(-c2cnn(C)c2NC(=O)O[C@H](C)c2cccc(F)c2)ccc1NS(C)(=O)=O [Compound 13]
Q: Write the entries in order, lowest recorded EC50 first. When ranking, write the labels in the order the request describes.
A: 3, 2, 4, 1
